Cited source for all entries: the RNAGym collection of RNA variant scans (doi:10.1101/gr.219683.116)

B1: mRNA-splicing (parent)
chain: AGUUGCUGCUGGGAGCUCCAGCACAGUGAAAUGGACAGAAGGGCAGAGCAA

# Variants of: B1
# Test Method Notes: exon inclusion enrichment index; higher = more inclusion; WT1 exon 5 minigene, HEK293
Returns one of label 1 or label 0; label 1 when exon inclusion enrichment index is >= 1.

[[record]]
residue_sequence = "AGUUCACACAGGGAAGUCCAGCACAGUGAAAUGGACAGAAGGGCAGAGCAA"
assigned_category = "label 0"

[[record]]
residue_sequence = "AGUUCUUCUCGGGGACUCCAGCACAGUGAAAUGGACAGAAGGGCAGAGCAA"
assigned_category = "label 1"

[[record]]
residue_sequence = "AGUUGACGACGGGAGCUCCAGCACAGUGAAAUGGACAAAAGGGCAGAGCAA"
assigned_category = "label 1"

[[record]]
residue_sequence = "AGUUGCUGCUGGGAGCUCCAGCACAGUGAAAUGGACAGAAGCCCAGAGCAA"
assigned_category = "label 0"

[[record]]
residue_sequence = "AGUUUCCGACGGGAGCUCCAGCACAGUGAAAUGGACAGAAGGGCAGAGCAA"
assigned_category = "label 1"

[[record]]
residue_sequence = "AGUUGAAGAAGGGAGCUCCAGCACAGUGAAAUGGAUAGAAGGGCAGAGCAA"
assigned_category = "label 0"

[[record]]
residue_sequence = "AGUUCGCGCCGGGAGCUCCAGCACAGUGAAAUGUCCAGAAGGGCAGAGCAA"
assigned_category = "label 1"

[[record]]
residue_sequence = "AGUUGCUGCUGGGAGCUCACGCACAGUGAAAUGGACAGAAGGGCAGAGCAA"
assigned_category = "label 1"

[[record]]
residue_sequence = "AGUUGAAGAAGGUGGCUCCAGCACAGUGAAAUGGACAGAAGGGCAGAGCAA"
assigned_category = "label 0"

[[record]]
residue_sequence = "AGUUCUUGCCGGGAGCUCCAGCACAGUGAAAUGGACAGAAGGGCAGAGCAA"
assigned_category = "label 1"

[[record]]
residue_sequence = "AGUUCUUCUCGGGAGCUAAAGCACAGUGAAAUGGACAGAAGGGCAGAGCAA"
assigned_category = "label 0"

[[record]]
residue_sequence = "AGUUUCUUGCGGGAGCUCCAGCACAGUGAAAUGGACAGAAGGGCAGAGCAA"
assigned_category = "label 0"

[[record]]
residue_sequence = "AGUUACCACCGGGAGCUCCAGCACAGUGAAAUGGACAGAAGGGCAAAGCAA"
assigned_category = "label 1"

[[record]]
residue_sequence = "AGUUGAAGAAGGGAGCUCCAGGUCAGUGAAAUGGACAGAAGGGCAGAGCAA"
assigned_category = "label 0"

[[record]]
residue_sequence = "AGUUAUAUACAGGAGCUCCAGCACAGUGAAAUGGACAGAAGGGCAGAGCAA"
assigned_category = "label 0"

[[record]]
residue_sequence = "AGUUGCUGCUGGUAGCUCCAGCACAGUGAAAUGGACAGAAGGGCAGAGCAA"
assigned_category = "label 0"

[[record]]
residue_sequence = "AGUUCGCGCCGGGAGCUCCAGUUCAGUGAAAUGGACAGAAGGGCAGAGCAA"
assigned_category = "label 1"

[[record]]
residue_sequence = "AGUUAGGGAUGGGAGCUCCAGCACAGGCAAAUGGACAGAAGGGCAGAGCAA"
assigned_category = "label 0"

[[record]]
residue_sequence = "AGUUCGCGCCGGGAGCUCCGACACAGUGAAAUGGACAGAAGGGCAGAGCAA"
assigned_category = "label 1"

[[record]]
residue_sequence = "AGUUCACACAGGGAGCUCCAGCACAGUGAAAUGGGAAGAAGGGCAGAGCAA"
assigned_category = "label 0"

[[record]]
residue_sequence = "AGUUAUAUAUGGCCGCUCCAGCACAGUGAAAUGGACAGAAGGGCAGAGCAA"
assigned_category = "label 0"

[[record]]
residue_sequence = "AGUUUCUUUUGCAAGCUCCAGCACAGUGAAAUGGACAGAAGGGCAGAGCAA"
assigned_category = "label 0"

[[record]]
residue_sequence = "AGUUCACACAGGGAGCUCCAGCACAGUGCCAUGGACAGAAGGGCAGAGCAA"
assigned_category = "label 0"

[[record]]
residue_sequence = "AGUUGACGACGUCAGCUCCAGCACAGUGAAAUGGACAGAAGGGCAGAGCAA"
assigned_category = "label 0"

[[record]]
residue_sequence = "AGUUUCUUUUGGGAGCUCCAGCACAGUGAAAUAGACAGAAGGGCAGAGCAA"
assigned_category = "label 0"

[[record]]
residue_sequence = "AGUUUCUUUUGGGAGCUCCAGCACAGUGAAAUGGACAGAAGGGCCCAGCAA"
assigned_category = "label 0"

[[record]]
residue_sequence = "AGUUACCACCGGGAGCUCCAGCACAGUGAAAUUUACAGAAGGGCAGAGCAA"
assigned_category = "label 0"

[[record]]
residue_sequence = "AGUCGGCGCCGGGAGCUCCAGCACAGUGAAAUGGACAGAAGGGCAGAGCAA"
assigned_category = "label 1"

[[record]]
residue_sequence = "AGUUAGGGAGUGGAGCUCCAGCACAGUGAAAUGGACAGAAGGGCAGAGCAA"
assigned_category = "label 0"

[[record]]
residue_sequence = "AGUUGGCACCGGGAGCUCCAGCACAGUGAAAUGGACAGAAGGGCAGAGCAA"
assigned_category = "label 1"

[[record]]
residue_sequence = "AGUUACCACCGGGAGCUCCAGCACAGUGAAAUGGACAGUGGGGCAGAGCAA"
assigned_category = "label 0"

[[record]]
residue_sequence = "AGUUGCUGCUGGGAGCUCCAGCACAGUGAAAUGGACAACAGGGCAGAGCAA"
assigned_category = "label 0"

[[record]]
residue_sequence = "AGUUCUUCUCGGGAGCUCCAGCACAGUGAAGAGGACAGAAGGGCAGAGCAA"
assigned_category = "label 1"

[[record]]
residue_sequence = "AGUUGAAGAAGGGAGCUCCAGCACAGGCAAAUGGACAGAAGGGCAGAGCAA"
assigned_category = "label 0"

[[record]]
residue_sequence = "AGUUAUAUAUGGGAGCUCCAGCACAGUGAAAUGGACAGACUGGCAGAGCAA"
assigned_category = "label 0"

[[record]]
residue_sequence = "AGUUGACGACGGGAGCUCCAGCACAGUGAAAUGGACAGGAGGGCAGAGCAA"
assigned_category = "label 1"

[[record]]
residue_sequence = "AGUUGGUCUCGGGAGCUCCAGCACAGUGAAAUGGACAGAAGGGCAGAGCAA"
assigned_category = "label 0"

[[record]]
residue_sequence = "AGUUGCUGCUGGGAGCUCCAGCACAGUGAAAUGGACAGAAGGGCAGAACAA"
assigned_category = "label 0"

[[record]]
residue_sequence = "AGUUGCUGCUGGGAGCUCCAGCACAGUGAAAUGGACAGAAGGGCCUAGCAA"
assigned_category = "label 0"

[[record]]
residue_sequence = "AGUUCUUCAGGGGAGCUCCAGCACAGUGAAAUGGACAGAAGGGCAGAGCAA"
assigned_category = "label 0"

[[record]]
residue_sequence = "AGUUCUUCUCGGAUGCUCCAGCACAGUGAAAUGGACAGAAGGGCAGAGCAA"
assigned_category = "label 1"

[[record]]
residue_sequence = "AGUUACCACCGGGAGCUAUAGCACAGUGAAAUGGACAGAAGGGCAGAGCAA"
assigned_category = "label 0"

[[record]]
residue_sequence = "AGUUACUCUCGGGAGCUCCAGCACAGUGAAAUGGACAGAAGGGCAGAGCAA"
assigned_category = "label 1"

[[record]]
residue_sequence = "AGUUAUAUAUGGGAGCUCCAAAACAGUGAAAUGGACAGAAGGGCAGAGCAA"
assigned_category = "label 0"

[[record]]
residue_sequence = "AGUUCUUCUCGGGAGCUCCAGCACAGUGAAAUGGACAGAAGGGCUAAGCAA"
assigned_category = "label 1"

[[record]]
residue_sequence = "AGUUAUAUAUGGGAGCUCCAGCACAGUGAAAUGGAUUGAAGGGCAGAGCAA"
assigned_category = "label 0"

[[record]]
residue_sequence = "AGUUAUAUAUGGGAGCUCCAGCUAAGUGAAAUGGACAGAAGGGCAGAGCAA"
assigned_category = "label 0"

[[record]]
residue_sequence = "AGUUCACACAGGGAGCUCCAGCACAGUGAGUUGGACAGAAGGGCAGAGCAA"
assigned_category = "label 0"

[[record]]
residue_sequence = "AGCCACCACCGGGAGCUCCAGCACAGUGAAAUGGACAGAAGGGCAGAGCAA"
assigned_category = "label 1"

[[record]]
residue_sequence = "AGUUGCUGCUGGGAGCUCCAGCACAGUGAAAUGGACAGAGAGGCAGAGCAA"
assigned_category = "label 0"

[[record]]
residue_sequence = "AGUUAUAUAUGGGAGCUCAGGCACAGUGAAAUGGACAGAAGGGCAGAGCAA"
assigned_category = "label 0"

[[record]]
residue_sequence = "AGUUUCUUUUGGGAGCUCCAGCACACCGAAAUGGACAGAAGGGCAGAGCAA"
assigned_category = "label 0"

[[record]]
residue_sequence = "AGUUGACCACGGGAGCUCCAGCACAGUGAAAUGGACAGAAGGGCAGAGCAA"
assigned_category = "label 1"

[[record]]
residue_sequence = "AGUUCUUCUCGGGAGCUCACGCACAGUGAAAUGGACAGAAGGGCAGAGCAA"
assigned_category = "label 0"

[[record]]
residue_sequence = "AGUUAGGGAUGGGAGCUCCAGCACAGUGAAAUGGACAGAAGGUCAGAGCAA"
assigned_category = "label 0"

[[record]]
residue_sequence = "AGUUUCUUUUGGGAAAUCCAGCACAGUGAAAUGGACAGAAGGGCAGAGCAA"
assigned_category = "label 0"

[[record]]
residue_sequence = "AGUUGAAGAAGAGAGCUCCAGCACAGUGAAAUGGACAGAAGGGCAGAGCAA"
assigned_category = "label 1"

[[record]]
residue_sequence = "AGUUAGGGAGCGGAGCUCCAGCACAGUGAAAUGGACAGAAGGGCAGAGCAA"
assigned_category = "label 0"

[[record]]
residue_sequence = "AGUUCUUCUCGGGAGCUCCAGCACAGUGAAAUGGAUAGAAGGGCAGAGCAA"
assigned_category = "label 0"

[[record]]
residue_sequence = "AGUUUCUUUUGGGAGCUCAAGCACAGUGAAAUGGACAGAAGGGCAGAGCAA"
assigned_category = "label 0"

[[record]]
residue_sequence = "AGUUCACACAGGGAGCUCCAGGACAGUGAAAUGGACAGAAGGGCAGAGCAA"
assigned_category = "label 0"

[[record]]
residue_sequence = "AGUUUCUUUUGGGAGCUCCGACACAGUGAAAUGGACAGAAGGGCAGAGCAA"
assigned_category = "label 0"

[[record]]
residue_sequence = "AGUUAUAUAUGGGAGCUGAAGCACAGUGAAAUGGACAGAAGGGCAGAGCAA"
assigned_category = "label 0"

[[record]]
residue_sequence = "AGUUCGCGCCGGGAGCUCCAGCACAGUGAAAUGGACAGACAGGCAGAGCAA"
assigned_category = "label 1"

[[record]]
residue_sequence = "AGUUGCUGCUGGGAGCUCCAGCACAGUGAAAUGGACAGAAGGCGAGAGCAA"
assigned_category = "label 1"

[[record]]
residue_sequence = "AGUUGACGACGGGAGCUCCAGCACAGUGAAAUGGACAGAAACGCAGAGCAA"
assigned_category = "label 1"

[[record]]
residue_sequence = "AGUUAGGGAUGGGAGCUCCAGCACAGUGAAAUGGACAGACCGGCAGAGCAA"
assigned_category = "label 0"

[[record]]
residue_sequence = "AGUUGACGACGGGAGCUUUAGCACAGUGAAAUGGACAGAAGGGCAGAGCAA"
assigned_category = "label 0"

[[record]]
residue_sequence = "AGUUGAAGAAGGGAGCUCCAGCACAGUGAAAUGGACAGACCGGCAGAGCAA"
assigned_category = "label 1"

[[record]]
residue_sequence = "AGUUCUUCUCGGGGCCUCCAGCACAGUGAAAUGGACAGAAGGGCAGAGCAA"
assigned_category = "label 0"

